Tested system: SHP2 (Homo sapiens, UniProt Q06124)
Construct: purchased BPS Bioscience, Inc., San Diego, CA, USA
Sequence (Q06124 whole entry): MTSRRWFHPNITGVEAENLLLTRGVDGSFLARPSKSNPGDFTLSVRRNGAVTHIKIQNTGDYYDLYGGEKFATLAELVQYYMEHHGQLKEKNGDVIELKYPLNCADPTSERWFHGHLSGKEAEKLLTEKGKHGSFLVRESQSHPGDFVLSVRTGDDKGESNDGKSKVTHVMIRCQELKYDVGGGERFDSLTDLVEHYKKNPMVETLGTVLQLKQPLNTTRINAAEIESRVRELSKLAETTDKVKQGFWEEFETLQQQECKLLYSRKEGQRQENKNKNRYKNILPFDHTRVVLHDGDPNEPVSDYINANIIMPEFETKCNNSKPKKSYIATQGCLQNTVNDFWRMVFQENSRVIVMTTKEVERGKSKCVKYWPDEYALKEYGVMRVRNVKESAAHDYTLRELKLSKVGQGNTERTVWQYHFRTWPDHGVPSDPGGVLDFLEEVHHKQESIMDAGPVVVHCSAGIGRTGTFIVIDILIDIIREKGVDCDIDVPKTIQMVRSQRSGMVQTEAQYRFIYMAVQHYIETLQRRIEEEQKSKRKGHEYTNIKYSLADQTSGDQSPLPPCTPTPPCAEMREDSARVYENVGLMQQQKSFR
Run description: Enzymatic SHP2 inhibition assay (pNPP phosphatase activity)
Format: biochemical
Run conditions: at 100 μM compound; read-out: inhibition of SHP2 enzyme
Readout name: inhibition at 100 µM (%)

[[record]]
compound = "O=C(c1ccccc1)c1ccc2c(Cl)ccc(C(=O)O)c2c1C(=O)O [Compound 137420]"
observed = 71

[[record]]
compound = "Cc1ccc(C(=O)Nc2ccc(S(=O)(=O)O)c3cc(S(=O)(=O)O)cc(S(=O)(=O)O)c23)cc1NC(=O)c1cccc(NC(=O)Nc2cccc(C(=O)Nc3cc(C(=O)Nc4ccc(S(=O)(=O)O)c5cc(S(=O)(=O)O)cc(S(=O)(=O)O)c45)ccc3C)c2)c1 [Suramin, reference compound]"
observed = 79

[[record]]
compound = "O=C(O)CSC(Nc1ccccc1C(=O)O)c1ccccc1 (stereo not shown) [Compound 24198]"
observed = 99

[[record]]
compound = "COc1ccc2nc3cc(Cl)ccc3c(SC(CC(=O)O)C(=O)O)c2c1 (stereo not shown) [Compound 13030]"
observed = 98

